experiment_description: Enzyme kinetic analysis of yCD series proteins after DTPA modification, marking and purification
Type: biochemical
metric: Vmax
// return the numeric value with its unit appended

1) yCD: yeast cytosine deaminase (yCD) (SEQ ID NO: 1), recombinant protein without target molecule (protein, yCD) MVVTGGMASKWDQKGMDIAYEEAALGYKEGGVPIGGCLINNKDGSVLGRGHNMRFQKGSATLHGEISTLENCGRLEGKVYKDTTLYTTLSPCDMCTGAIIMYGIPRCVVGENVNFKSKGEKYLQTRGHEVVVVDDERCKKIMKQFIDERPQDWFEDIGELEHHHHHH :: 264.1 ± 8.256 µM/min

Proceed to the following item.
-- ask What value of Vmax has been reported for the following molecule? RGD4C-yCD: targeted prodrug enzyme fusion protein of RGD4C and yCD (SEQ ID NO: 3) (protein, RGD4C_yCD) MACDCRGDCFCVTGGMASKWDQKGMDIAYEEAALGYKEGGVPIGGCLINNKDGSVLGRGHNMRFQKGSATLHGEISTLENCGRLEGKVYKDTTLYTTLSPCDMCTGAIIMYGIPRCVVGENVNFKSKGEKYLQTRGHEVVVVDDERCKKIMKQFIDERPQDWFEDIGELEHHHHHH
-- reply 288.7 ± 8.883 µM/min
